These entries and their values trace back to patent US20250270287A1.

Known IC50, SBE-luciferase reporter in HEK293 cells of a selection of binders
# EXPERIMENTAL_TARGET: T1, GDF-11 (UniProt O95390 299-407)
# T1 sequence (looked up): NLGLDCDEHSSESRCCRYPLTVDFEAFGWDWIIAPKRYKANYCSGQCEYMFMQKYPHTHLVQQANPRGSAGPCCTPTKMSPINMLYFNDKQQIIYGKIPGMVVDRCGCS
# ASSAY_EXPLANATION: cell-based or functional assay
// note: answer is a bare numeric in µg/mL

In the examples that follow, each entry is paired with its recorded IC50, SBE-luciferase reporter in HEK293 cells.
>  <BINDER>
ActRIIA-B1B4 (SEQ ID NO: 102) chimera-Fc protein (Fc fusion, Tested as chimera-Fc protein; also called ActRIIA-B1β4; not shown: linker (if any) and Fc domain) GAILGRSETQECIYYNANWEKDRTNQTGVEPCYGDKDKRRHCFATWKNISGTIELVKKGCWLDDINCYDRTDCVEKKDSPEVYFCCCEGNMCNEKFSYFPEMEVTQPTS

>  <RECORDED_VALUE>
0.26

$$$$
>  <BINDER>
ActRIIA-B7 (SEQ ID NO: 100) chimera-Fc protein (Fc fusion, Tested as chimera-Fc protein; not shown: linker (if any) and Fc domain) GAILGRSETQECLFFNANWEKDRTNQTGVEPCYGDKDKRRHCFATWKNISGSIEIVKQGCWLDDINCYDRTDCVEKKDSPEVYFCCCEGNMCNERFTHLPEMEVTQPTS

>  <RECORDED_VALUE>
0.23

$$$$
>  <BINDER>
ActRIIA-A3 (SEQ ID NO: 106) chimera-Fc protein (Fc fusion, Tested as chimera-Fc protein; not shown: linker (if any) and Fc domain) GAILGRSETQECLFFNANWEKDRTNQTGVEPCEGEQDKRRHCFATWKNISGSIEIVKQGCWLDDINCYDRTDCVEKKDSPEVYFCCCEGNMCNEKFSYFPEMEVTQPTS

>  <RECORDED_VALUE>
0.19

$$$$

Task: Please look up its IC50, SBE-luciferase reporter in HEK293 cells: ActRIIA-A5 (SEQ ID NO: 107) chimera-Fc protein (Fc fusion, Tested as chimera-Fc protein; not shown: linker (if any) and Fc domain) GAILGRSETQECLFFNANWEKDRTNQTGVEPCYGDKDKRRHCFATWKNISGSIEIVKQGCWLDDFNCYDRQECVEKKDSPEVYFCCCEGNMCNEKFSYFPEMEVTQPTS
Result: 0.23
